- test-details: Cytotoxicity assay (MTT) on RAW264.7 cells
- Assay type: cell-based
- condition-context: mouse, RAW264.7 cell growth inhibition, MTT method
Recorded CC50 at 2 days, one value per entry.
Give the quantity in µM, number only.

compound	test-readout	measured-result
CC(=O)/C(=N\Nc1ccccc1C(=O)O)C(=O)Nc1nc2ccccc2s1 [Compound 23]	CC50 at 2 days	41.1
CCOC(=O)c1sc(NC(=O)/C(=N/Nc2c(C(=O)O)cccc2C(=O)O)C(C)=O)nc1C [Compound 18]	CC50 at 2 days	125
CCOC(=O)c1sc(NC(=O)/C(=N/Nc2cc(C)ccc2C(=O)O)C(C)=O)nc1C [Compound 8]	CC50 at 2 days	57.2

Lookup: CC50 at 2 days lookup needed for CCOC(=O)c1sc(NC(=O)/C(=N/Nc2cccc(C(=O)O)c2)C(C)=O)nc1C [Compound 3] , thanks.
Found: 81.2

Lookup: CCOC(=O)c1sc(NC(=O)/C(=N/Nc2ccc(F)cc2C(=O)O)C(C)=O)nc1C [Compound 10] , same question.
Found: 123

Lookup: Now this one: CCOC(=O)c1sc(NC(=O)/C(=N/Nc2ccc([N+](=O)[O-])cc2C(=O)O)C(C)=O)nc1C [Compound 14]
Found: 41.9

Lookup: Subsequent entry: CCOC(=O)c1sc(NC(=O)/C(=N/Nc2ccccc2CO)C(C)=O)nc1C [Compound 6]
Found: 77.9

Lookup: Ok, now CCOC(=O)c1sc(NC(=O)/C(=N/Nc2cc(C(=O)O)ccc2C(=O)O)C(C)=O)nc1C [Compound 19]
Found: 202

----------
- Test system: RANKL-induced osteoclast differentiation of RAW264.7 cells
- test-details: Osteoclast differentiation inhibition experiment (RANKL-induced, TRAP staining)
- Format: cell-based
- condition-context: selective inhibition constant = CC50 (RAW264.7 cytotoxicity) / IC50 (osteoclast differentiation)
test-readout: Therapeutic index SI (CC50/IC50)
// print number alone

Lookup: Requested read-out Therapeutic index SI (CC50/IC50), target or system RANKL-induced osteoclast differentiation of RAW264.7 cells, entry CCOC(=O)c1sc(NC(=O)/C(=N/Nc2ccccc2C(=O)O)C(C)=O)nc1C [Compound 1]
Found: 50

Lookup: What do you have for CC(=O)/C(=N\Nc1ccccc1C(=O)O)C(=O)Nc1ccc(C#N)cn1 [Compound 29] ?
Found: 37

Lookup: # iterate: CC(=O)/C(=N\Nc1ccccc1C(=O)O)C(=O)Nc1nc2ccccc2s1 [Compound 23]
Found: 53

Lookup: Follow-up entry: CCOC(=O)c1sc(NC(=O)/C(=N/Nc2ccc(C)cc2C(=O)O)C(C)=O)nc1C [Compound 9]
Found: 19

----------
- Test system: RANKL-induced osteoclast differentiation of RAW264.7 cells
- test-details: Osteoclast differentiation inhibition experiment (RANKL-induced, TRAP staining)
- Format: cell-based
- condition-context: selective inhibition constant = CC50 (RAW264.7 cytotoxicity) / IC50 (osteoclast differentiation)
Therapeutic index SI (CC50/IC50) overview
Lab note: jot the number down without any unit.

Worked cases, Therapeutic index SI (CC50/IC50) given:
smiles-text	Therapeutic index SI (CC50/IC50)
CC(=O)/C(=N\Nc1ccccc1C(=O)O)C(=O)Nc1ccccn1	301
CC(=O)/C(=N\Nc1ccccc1C(=O)O)C(=O)Nc1cccc(O)n1	13
CCOC(=O)c1sc(NC(=O)/C(=N/Nc2ccncc2C(=O)O)C(C)=O)nc1C	20
CC(=O)/C(=N\Nc1ccccc1C(=O)O)C(=O)Nc1nc(C)cs1	85

Now look at this one.
Lookup: Query (compound): CCOC(=O)c1sc(NC(=O)/C(=N/Nc2c(C(=O)O)cccc2C(=O)O)C(C)=O)nc1C ; field requested: Therapeutic index SI (CC50/IC50)
Found: 271
